Values compiled from paper PMC7102968.

- tested_system: TetR-Q38A (UniProt P04483 1-187+P0ACT4:188-208, Q38A;C68S;C88N;C121T;C144S;internal_change)
- measurement_notes: EMSA; 10 mM Mg2+, 25 ug/ml yeast tRNA; exact Kd not determinable, weak binding detected; ITC: 20 mM potassium phosphate pH 7.4, 50 mM NaCl, 25 C; EMSA: 50 mM Tris-HCl pH 8.0, 10 mM MgCl2, 25 mM NaCl, 25 ug/ml yeast tRNA, room temperature; SEC buffer not given (preparative complex: 20 mM Tris-HCl pH 8.0, 150 mM NaCl, 5 mM MgCl2)
- cond: protein: recombinant, chain copies: 2, label: 5'-32P in EMSA, none in ITC, crystal, hairpin, L-shaped, 43 nt, stems P1 and P2
endpoint_name: Kd

Lookup: I'd like to know its Kd. The binder in question is GGCCGGAGAAUGUUAUGGCGCGAAAGCGCAGAGAAAACCGGUC (structured_RNA) [TetR-binding aptamer K1]
Found: > 500 nM
